The origin of these recorded values is the OligoGym collection.

Biological target: IRF5
Settings: ASO, KARPAS-229, 4 µM
After the bases stand the sugars from the 5' end (letter, count) and the backbone: PS all phosphorothioate, else s phosphorothioate and o phosphodiester by linkage. Methylation of C is not given here. e = 2'-O-(2-methoxyethyl) (MOE); k = constrained ethyl (cEt); d = 2'-deoxy (DNA)
Class boundaries, taken from values of target mRNA inhibition, are as follows: A (below 10%), B (10% to below 40%), C (40% or more)

# count of solved cases: 8
{"columns": ["inputSequence", "class"],
 "data": [
  ["TTCTTGGACTCTCAAG (sugars kkddddddddkekekk, PS)", "A"],
  ["TGTCTAGTGTCATGGA (sugars k2 d8 e4 k2, PS)", "C"],
  ["TTATTTCTGCTCCAGG (sugars kkddddddddddkeke, PS)", "B"],
  ["AGGAGTGAGACGAGCA (sugars kddddddddddkekek, PS)", "B"],
  ["GTGAGTCTCAAACCAG (sugars kkddddddddddkeke, PS)", "B"],
  ["GGTGTATTTCCCTGTC (sugars kkddddddddddkeke, PS)", "B"],
  ["TATCTCCGTCCTGGCT (sugars kddddddddddkekek, PS)", "A"],
  ["CCAATTTTGCATTCCA (sugars kkkddddddddkekek, PS)", "C"]
]}

For AGGAAGTGAGTCTCAA (sugars kddddddddddkekek, PS) , which target mRNA inhibition bin applies?
B

Which band does GTAATAGGAGTGAGAC (sugars k3 d10 k3, PS) fall in?
B

----------
Biological target: IRF5
Details: ASO, KARPAS-229, 1.33333 µM
After the bases stand the sugars from the 5' end (letter, count) and the backbone: PS all phosphorothioate, else s phosphorothioate and o phosphodiester by linkage. Methylation of C is not given here. e = 2'-O-(2-methoxyethyl) (MOE); k = constrained ethyl (cEt); d = 2'-deoxy (DNA)
reportedMetric: target mRNA inhibition
Don't forget the unit after the number, please.

{"columns": ["inputSequence", "systemName", "target mRNA inhibition"],
 "data": [
  ["GGAAGTGAGTCTCAAA (sugars kkddddddddddkeke, PS)", "IRF5", "12%"]
]}

Per the record, TATTTCTGCTCCAGGT (sugars k3 d9 k3 e1, PS) has target mRNA inhibition of 52%

target mRNA inhibition reported for this sequence CTGATATGATACCTAA (sugars k3 d10 k3, PS) : 45%

Item: TCCAATTTTGCATTCC (sugars kekdddddddddeekk, PS) | target mRNA inhibition: 68%

----------
Biological target: IRF5
Settings: ASO, A-431, 0.33333 µM
After the bases stand the sugars from the 5' end (letter, count) and the backbone: PS all phosphorothioate, else s phosphorothioate and o phosphodiester by linkage. Methylation of C is not given here. [mop] = methoxypropylphosphonate linkage; k = constrained ethyl (cEt); d = 2'-deoxy (DNA)
reportedMetric: target mRNA inhibition (%)
Dear colleague, please return just the value in %, with no unit written.

Record excerpt, results attached:
{"columns": ["inputSequence", "outputUnit", "observed"],
 "data": [
  ["CTGATATGATACCTAA (sugars k3 d10 k3, PS)", "%", 88],
  ["CTGATATGATACCTAA (sugars k3 d10 k3, linkages s5 [mop]1 s9)", "%", 71],
  ["CTGATATGATACCTAA (sugars k3 d2 k1 d7 k3, PS)", "%", 80]
]}

For TCTGATATGATACCTA (sugars k3 d2 k1 d7 k3, PS) the sequence record lists target mRNA inhibition as 69
